Would you kindly list inhibition at 10 µM for each of these molecules?
Molecular target: BTK (Homo sapiens, UniProt Q06187)
Sequence (Q06187 402-655 limits assumed): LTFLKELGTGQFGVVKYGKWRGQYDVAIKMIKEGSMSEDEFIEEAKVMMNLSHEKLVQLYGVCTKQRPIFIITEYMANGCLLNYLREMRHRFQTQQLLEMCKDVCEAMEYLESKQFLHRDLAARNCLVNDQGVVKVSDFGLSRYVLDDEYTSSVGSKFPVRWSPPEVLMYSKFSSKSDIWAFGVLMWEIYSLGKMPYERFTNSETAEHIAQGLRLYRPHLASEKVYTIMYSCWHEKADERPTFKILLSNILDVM
Experiment: biochemical
Conditions: read-out: BTK inhibition (%), 0.75 uM BTK, […] probe 3l, 15 min preincubation
Please give the number followed by its unit.

[ask] What value of inhibition at 10 µM has been reported for the following molecule? C=C(c1ccc(C(=O)O)cc1)c1cc2c(cc1C)C(C)(C)CCC2(C)C
[reply] 14%

[ask] What value of inhibition at 10 µM has been reported for the following molecule? CCN1CCN(Cc2ccc(C(=O)Nc3ccc(C)c(Oc4ccc5c(c4)CC(=O)N5)c3)cc2C(F)(F)F)CC1
[reply] 20.7%

[ask] What value of inhibition at 10 µM has been reported for the following molecule? CC(C)[C@H]1C(=O)N[C@@H](CCCN=C(N)N)C(=O)NCC(=O)N[C@@H](CC(=O)O)C(=O)N[C@H](Cc2ccccc2)C(=O)N1C
[reply] -6.9%

[ask] What value of inhibition at 10 µM has been reported for the following molecule? COc1cc2c(cc1OC)C(=O)C(CC1CCN(Cc3ccccc3)CC1)C2 (centres unmarked)
[reply] -23.8%

[ask] What value of inhibition at 10 µM has been reported for the following molecule? CCCN1CCO[C@@H]2c3cc(O)ccc3OC[C@H]21
[reply] -8.6%

[ask] What value of inhibition at 10 µM has been reported for the following molecule? O=C(NC[C@H]1CN(c2ccc(N3CCOCC3=O)cc2)C(=O)O1)c1ccc(Cl)s1
[reply] 4.7%

[ask] What value of inhibition at 10 µM has been reported for the following molecule? O=c1cc(N2CCOCC2)oc2c(-c3cccc4c3sc3ccccc34)cccc12
[reply] -13.6%

[ask] What value of inhibition at 10 µM has been reported for the following molecule? Cn1nnc(-c2ccc(-c3ccc(N4C[C@H](COP(=O)(O)O)OC4=O)cc3F)cn2)n1
[reply] 13.2%
